# system_under_test: GP IIb IIIa (Homo sapiens, UniProt P05106+P08514)
# Construct: from tissue; host or cells: outdated human platelets
# Sequence (P08514 32-887 limits assumed): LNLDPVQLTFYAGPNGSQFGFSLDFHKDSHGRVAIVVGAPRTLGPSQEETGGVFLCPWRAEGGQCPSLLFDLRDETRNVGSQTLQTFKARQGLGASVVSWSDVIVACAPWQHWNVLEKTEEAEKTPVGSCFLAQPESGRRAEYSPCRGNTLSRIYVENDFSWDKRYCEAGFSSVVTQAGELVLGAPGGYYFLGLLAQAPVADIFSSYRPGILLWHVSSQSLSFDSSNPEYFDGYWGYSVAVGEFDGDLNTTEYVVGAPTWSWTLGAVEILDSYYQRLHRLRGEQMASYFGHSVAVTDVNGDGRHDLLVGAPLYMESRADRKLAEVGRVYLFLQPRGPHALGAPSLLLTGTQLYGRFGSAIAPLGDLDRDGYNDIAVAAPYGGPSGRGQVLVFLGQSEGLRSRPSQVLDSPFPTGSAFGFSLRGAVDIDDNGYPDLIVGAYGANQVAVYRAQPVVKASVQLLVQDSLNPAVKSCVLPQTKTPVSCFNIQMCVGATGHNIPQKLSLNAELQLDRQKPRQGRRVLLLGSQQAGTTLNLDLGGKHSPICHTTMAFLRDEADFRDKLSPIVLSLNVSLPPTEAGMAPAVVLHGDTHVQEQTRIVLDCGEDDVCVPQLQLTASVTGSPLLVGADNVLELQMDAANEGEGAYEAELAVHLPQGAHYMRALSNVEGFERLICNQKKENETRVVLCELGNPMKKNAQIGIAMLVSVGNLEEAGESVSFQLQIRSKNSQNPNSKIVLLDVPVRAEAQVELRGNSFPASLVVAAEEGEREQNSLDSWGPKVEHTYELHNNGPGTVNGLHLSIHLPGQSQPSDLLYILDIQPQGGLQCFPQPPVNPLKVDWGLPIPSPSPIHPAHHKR
# Sequence (P08514 891-1039 partner limits assumed): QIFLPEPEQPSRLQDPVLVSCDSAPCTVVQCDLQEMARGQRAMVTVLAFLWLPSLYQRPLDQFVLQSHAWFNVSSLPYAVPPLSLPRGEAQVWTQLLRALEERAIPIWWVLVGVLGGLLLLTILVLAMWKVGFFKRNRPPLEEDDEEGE
# Sequence (P05106 27-788): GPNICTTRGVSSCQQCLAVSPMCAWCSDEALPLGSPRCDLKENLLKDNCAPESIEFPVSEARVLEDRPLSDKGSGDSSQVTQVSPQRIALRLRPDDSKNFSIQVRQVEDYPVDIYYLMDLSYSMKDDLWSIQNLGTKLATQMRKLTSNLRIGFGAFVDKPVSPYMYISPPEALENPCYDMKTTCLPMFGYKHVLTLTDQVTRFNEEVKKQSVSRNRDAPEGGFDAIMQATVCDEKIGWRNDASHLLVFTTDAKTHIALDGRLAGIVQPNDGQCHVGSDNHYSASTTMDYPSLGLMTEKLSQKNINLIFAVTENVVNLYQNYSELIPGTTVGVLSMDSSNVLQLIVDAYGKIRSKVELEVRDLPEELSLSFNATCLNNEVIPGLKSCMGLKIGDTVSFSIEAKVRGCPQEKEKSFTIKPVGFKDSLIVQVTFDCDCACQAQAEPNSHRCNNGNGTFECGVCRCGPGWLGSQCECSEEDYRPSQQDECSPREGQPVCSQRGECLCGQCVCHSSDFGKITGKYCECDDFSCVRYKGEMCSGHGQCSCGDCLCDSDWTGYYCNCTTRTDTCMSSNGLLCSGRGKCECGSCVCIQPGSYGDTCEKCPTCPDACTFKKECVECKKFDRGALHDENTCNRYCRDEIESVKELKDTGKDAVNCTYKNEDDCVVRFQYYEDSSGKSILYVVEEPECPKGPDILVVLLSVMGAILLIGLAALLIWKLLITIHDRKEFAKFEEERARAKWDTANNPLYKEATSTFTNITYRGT
# assay_protocol: Fibrinogen-GP IIb IIIa Receptor ELISA Binding Assay (Fg/IIbIIIa)
# measurement_conditions: Example 30, G # table; read-out: IC50 (μM) Fg/IIbIIIa
Structures can show the parent of a compound that is named as a salt.
endpoint: IC50 (µM)
Numeric answer only, unit µM assumed.

NCCCCCCCc1ccc2c(c1)C(=O)N(CCC(=O)O)CC(=O)N2Cc1ccc(Cl)cc1 [Cmpd 66] : 0.026
NCCCCCCc1ccc2c(c1)C(=O)N(CCC(=O)O)CC(=O)N2Cc1cccc(NC(=O)CCCCN)c1 [Cmpd 114] : 0.008
N=C(N)NCCCc1ccc2c(c1)C(=O)N(CCC(=O)O)CC(=O)N2 [Cmpd 2] : 0.714
N=C(N)NCCCC#Cc1ccc2c(c1)C(=O)N(CCC(=O)O)CC(=O)N2Cc1cccc(NC(=O)CNC(=N)N)c1 [Cmpd 107] : 0.018
N=C(N)NCCCCCCc1ccc2c(c1)C(=O)N(CCC(=O)O)CC(=O)N2Cc1cccc(NC(=O)CCCCCNC(=N)N)c1 [Cmpd 117] : 0.013

Lookup result for COc1ccc(CN2C(=O)CN(CCC(=O)O)C(=O)c3cc(CCCCCCNC(=N)N)ccc32)cc1 [Cmpd 84, trifluoroacetate] ; measured IC50: 0.024

Lookup result for N=C(N)NCCCC#Cc1ccc2c(c1)C(=O)N(CCC(=O)O)CC(=O)N2Cc1cccc([N+](=O)[O-])c1 [Cmpd 36] ; measured IC50: 0.0032
